# tested_on: SIRT1 (Homo sapiens)
# Sequence (Q96EB6 whole entry): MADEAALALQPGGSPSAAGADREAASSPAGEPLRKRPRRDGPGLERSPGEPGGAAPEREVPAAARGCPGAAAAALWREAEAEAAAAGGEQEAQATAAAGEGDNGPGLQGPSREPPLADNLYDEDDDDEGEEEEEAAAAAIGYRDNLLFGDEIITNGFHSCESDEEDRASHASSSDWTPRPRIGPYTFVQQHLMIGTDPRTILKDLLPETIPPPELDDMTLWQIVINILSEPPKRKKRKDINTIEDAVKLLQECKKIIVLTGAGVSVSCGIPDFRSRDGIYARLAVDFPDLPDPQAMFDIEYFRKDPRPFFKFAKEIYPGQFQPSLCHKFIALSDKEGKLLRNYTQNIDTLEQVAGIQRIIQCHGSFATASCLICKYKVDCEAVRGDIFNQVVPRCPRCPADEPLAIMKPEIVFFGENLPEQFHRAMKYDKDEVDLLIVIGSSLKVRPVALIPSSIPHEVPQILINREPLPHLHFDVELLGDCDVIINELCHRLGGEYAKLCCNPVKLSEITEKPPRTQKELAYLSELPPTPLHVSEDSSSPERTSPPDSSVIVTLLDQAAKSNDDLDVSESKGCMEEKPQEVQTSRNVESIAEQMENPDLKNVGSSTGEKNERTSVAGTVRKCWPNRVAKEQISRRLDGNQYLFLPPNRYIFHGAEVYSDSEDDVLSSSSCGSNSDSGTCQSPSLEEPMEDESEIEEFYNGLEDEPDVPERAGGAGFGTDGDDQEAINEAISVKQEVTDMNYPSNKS
# test_description: Trp mass spectrometry assay of SIRT1 activity (EC1.5, percent maximum activation)
# Format: biochemical
# applied_conditions: Trp mass spectrometry assay; EC1.5 = concentration giving 150% activation of SIRT1
readout_name: TRP Activity (EC1.5)

- compound: "O=C(Nc1ccnc(OC2CCOCC2)n1)N1c2nc(-c3cccc(C(F)(F)F)c3)c(Cl)cc2N2CC[C@H]1C2"
  TRP Activity (EC1.5): "B (EC1.5 1-25 μM)"
- compound: "Cc1cc(-c2ccc3c(n2)N(C(=O)Nc2cc4cn[nH]c4cn2)[C@H]2CCN3C2)ccn1"
  TRP Activity (EC1.5): "A (EC1.5<1 μM)"
- compound: "Cc1cc(-c2nc3c(cc2C#N)N2CC[C@@H](C2)N3C(=O)Nc2ccccn2)ccn1"
  TRP Activity (EC1.5): "B (EC1.5 1-25 μM)"
- compound: "Cc1ccc(-c2cc(C)c3c(n2)N(C(=O)Nc2cccnc2)[C@H]2CCN3C2)cn1"
  TRP Activity (EC1.5): "B (EC1.5 1-25 μM)"
- compound: "O=C(Nc1ccnc(OC[C@@H](O)CO)c1)N1c2nc(-c3ccnc(C(F)(F)F)c3)c(Cl)cc2N2CC[C@H]1C2"
  TRP Activity (EC1.5): "B (EC1.5 1-25 μM)"
- compound: "O=C(Nc1cncc(OC[C@@H](O)CO)c1)N1c2nc(-c3cccc(C(F)(F)F)c3)c(Cl)cc2N2CC[C@H]1C2"
  TRP Activity (EC1.5): "A (EC1.5<1 μM)"
- compound: "Cc1cc(-c2ccc3c(n2)N(C(=O)N[C@H](C)c2ccccn2)[C@H]2CCN3C2)ccn1"
  TRP Activity (EC1.5): "C (EC1.5>25 μM)"
- compound: "CC(C)(CO)COc1cccc(NC(=O)N2c3nc(-c4cccc(C(F)(F)F)c4)c(Cl)cc3N3CC[C@H]2C3)n1"
  TRP Activity (EC1.5): "B (EC1.5 1-25 μM)"
- compound: "Cc1cc(-c2nc3c(c(C)c2C)N2CC[C@@H](C2)N3C(=O)Nc2cccnc2)ccn1"
  TRP Activity (EC1.5): "B (EC1.5 1-25 μM)"
- compound: "Cc1cc(-c2ccc3c(n2)N(C(=O)Nc2cnccn2)C2CCN3C2)ccn1 (stereo in doubt)"
  TRP Activity (EC1.5): "B (EC1.5 1-25 μM)"

Input line: Data request, read-out TRP Activity (EC1.5), for CCn1cc(-c2nc3c(cc2Cl)N2CC[C@@H](C2)N3C(=O)Nc2ccnc(OC[C@H](O)CO)c2)cn1
Output line: B (EC1.5 1-25 μM)

Input line: Data request, read-out TRP Activity (EC1.5), for Cl.O=C(Nc1ccnc(OC[C@H](O)CO)c1)N1c2nc(-c3cccc(C(F)(F)F)c3)c(Cl)cc2N2CC[C@H]1C2
Output line: A (EC1.5<1 μM)

Input line: Data request, read-out TRP Activity (EC1.5), for Cc1cc(-c2ccc3c(n2)N(C(=O)N2CCCCC2)[C@H]2CCN3C2)ccn1
Output line: C (EC1.5>25 μM)

Input line: Data request, read-out TRP Activity (EC1.5), for O=C(Nc1cc(OC[C@@H](O)CO)ccn1)N1c2nc(-c3cccc(C(F)(F)F)c3)c(Cl)cc2N2CC[C@H]1C2
Output line: B (EC1.5 1-25 μM)

Input line: Data request, read-out TRP Activity (EC1.5), for Cc1cc(-c2ccc3c(n2)N(C(=O)Nc2cccnn2)[C@H]2CCN3C2)ccn1
Output line: B (EC1.5 1-25 μM)
